Give composite z-score for every item shown.
target: Torsin-1A-interacting protein 2 (Homo sapiens) (UniProt Q8NFQ8); assay: small molecules binding lysate-expressed LULL1 – cell lysate, human LULL1 lysate, 635/667 nm fluorescence, primary screen (AID 1092); details: small-molecule microarray, hLULL1 lysate binding, 635 nm fluorescence; higher = more signal;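 note: probe is lysate of COS7 cells overexpressing human LULL1; score merges per-feature 667 nm fluorescence with signal-to-noise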
Sequence (Q8NFQ8 whole entry, looked up): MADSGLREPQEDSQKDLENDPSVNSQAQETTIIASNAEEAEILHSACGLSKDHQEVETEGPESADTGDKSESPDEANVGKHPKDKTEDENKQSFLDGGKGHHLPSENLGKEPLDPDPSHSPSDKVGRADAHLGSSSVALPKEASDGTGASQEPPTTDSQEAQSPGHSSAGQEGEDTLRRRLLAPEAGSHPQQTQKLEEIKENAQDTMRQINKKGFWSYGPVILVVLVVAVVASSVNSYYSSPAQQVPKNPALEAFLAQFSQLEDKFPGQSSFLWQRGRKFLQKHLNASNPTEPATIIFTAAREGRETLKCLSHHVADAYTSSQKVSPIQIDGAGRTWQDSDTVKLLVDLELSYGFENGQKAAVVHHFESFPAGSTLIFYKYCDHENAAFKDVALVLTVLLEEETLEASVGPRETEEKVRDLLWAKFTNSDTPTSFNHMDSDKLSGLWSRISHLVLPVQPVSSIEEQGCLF
Numbers only.

Sample records with composite z-score:
1) O=C1NC(=O)C2C1C=CC(C(O)c1ccc(-c3ccccc3)s1)N2Nc1ccccn1 (stereo not drawn)    1.76
2) [N-]=[N+]=Nc1ccccc1[C@@H]1OC(c2ccc(OCCCO)cc2)=N[C@]1(CCS(=O)(=O)c1ccccc1)C(=O)NCc1ccccc1    3.23
3) COC(=O)[C@@]1(Cc2ccccc2)[C@H]2c3cc(C(=O)N4CCCC4)n(Cc4ccccc4)c3C[C@H]2CN1C(=O)c1ccccc1    3.41

Hey, can you go through the list below and give me composite z-score for every item?
1. COc1ccc([Si](C)(C)[C@@H]2[C@@H](CC(=O)N(CCO)Cc3ccccc3)O[C@]3(C(=O)N(Cc4ccc(N5CCOC5=O)cc4)c4ccccc43)[C@H]2C)cc1
2. CC(C)CCC[C@@H](C)[C@H]1CC[C@@]2(C)C3=C(CC[C@]12C)[C@@]1(C)CC[C@H](OC(=O)C(C)(C)C)C(C)(C)C1CC3 (stereo partly drawn)
3. COc1ccc([Si](C)(C)[C@H]2[C@H](CCO)O[C@@]3(C(=O)N(Cc4cccc(N5CCOC5=O)c4)c4ccccc43)[C@@H]2C)cc1
4. COC(=O)[C@@]1(Cc2ccc(OC)cc2)[C@H]2c3cc(C(=O)N4CCCC4)n(CCF)c3C[C@H]2CN1C(=O)c1ccccc1

[2.13, 0.0236, 2.39, 3.56]

Any idea what composite z-score was measured for C=C(C)[C@@H]1CC=C(C(O)C2C=CC3C(=O)N(C4CCCCC4)C(=O)C3N2Nc2ccc(OC)cc2)CC1 (stereo partly drawn) ?
3.27
